# Test system: Wild type
# measurement.protocol: S. aureus survival, RN4220 and DeltatarO strains – OD600, teichoic acid synthesis inhibitors, primary screen (AID 463173)
# study.conditions: S. aureus RN4220 wild type/DeltatarO growth, OD600, 18 h, screened at 18.75 µg/mL (by protocol)
In all, about 52,000 compounds went through this assay and about 1,700 (3.3%) were called active. Cut-off read from the data, not from the text of the source: active = survival mostly below about 52% (no sharp cut-off); inactive = mostly above about 56%. The sample as a whole holds a higher share of actives than the screen did.
Your reply should match one of these outcome classes. active, inactive

Worked examples, 3 compounds total:
CCCCc1ccc(NC(=O)CSc2nc3ccccc3nc2N2CCCCC2)cc1	inactive
CCn1c(=O)c2cc(C(=O)N(C)c3cc(C)ccc3C)sc2c2ccccc21	inactive
COc1ccc(OC)c(NC(=O)CSc2nc3ccccc3nc2N2CCCCC2)c1	active

// switching to the query compound
Record request — test call for Cc1cccc(OCCCCn2c(C3CC(=O)N(c4ccccc4Cl)C3)nc3ccccc32)c1 (stereo unspecified)
active

###

# Test system: Wild type
# measurement.protocol: S. aureus survival, RN4220 and DeltatarO strains – OD600, teichoic acid synthesis inhibitors, primary screen (AID 463173)
# study.conditions: S. aureus RN4220 wild type/DeltatarO growth, OD600, 18 h, screened at 18.75 µg/mL (by protocol)
The whole screen tested about 52,000 compounds, of which about 1,700 (3.3%) were called active. No stated cut-off is given here; in the data, active means survival mostly below about 52% (no sharp cut-off); inactive means mostly above about 56%. For the sample, actives were picked, then their nearest neighbours and some compounds at random.
Response enum: yes = active, no = inactive

COC(=O)c1c(NC(=O)COc2cc(C)c(Cl)c(C)c2)sc2c1CCCC2	no
COc1ccc(-c2nc(CSCC(=O)N3CCN(c4cc(Cl)ccc4C)CC3)c(C)o2)cc1	yes
Cc1cccc(-c2nc(CN3CCCC(C(=O)N4CCN(c5cc(Cl)ccc5C)CC4)C3)c(C)o2)c1 (stereo unspecified)	no
Clc1ccccc1C(c1nnnn1Cc1ccco1)N1CCN(Cc2ccco2)CC1 (stereo unspecified)	no
CN(Cc1ccccc1)C(C(=O)NC1CCCCC1)c1ccc(Cl)cc1 (stereo unspecified)	no
COC(=O)c1c(NC(=O)CCCOc2ccc(C)cc2)sc2c1CCCC2	yes
CCOc1cc(C2CC(=O)Nc3cc4c(cc32)OCCO4)ccc1O (stereo unspecified)	no
Cc1cc(C)c2nc(N(Cc3cccnc3)C(=O)c3ccc(S(=O)(=O)N(C)C)cc3)sc2c1	no
COC(=O)c1c(NC(=O)c2ccc(OC)cc2OC)sc2c1CCCCC2	no
COC(=O)c1c(NC(=O)c2ccccc2C(=O)O)sc2c1CCCC2	no

Dear colleague, could you share the recorded outcome for "COC(=O)c1c(NC(=O)COc2c(C)cccc2C)sc2c1CCCC2" when you have a moment?
yes

Test call for this molecule, please: O=C(NC1CCCC1)C(c1ccccc1)N(Cc1ccccc1F)C(=O)c1ccco1 (stereo unspecified)
no

Give the logged outcome of this assay for the following molecule: COc1cc(C(=O)N(CCc2ccccc2)C2CC3CCC(C2)N3C)cc(OC)c1OC (stereo unspecified)
no

# outcome recorded in this test, key = "CCCCN(CCCC)CCNC(=O)CN1C(=O)CSc2ccc(S(=O)(=O)N3CCCCC3)cc21"
no

###

# System: Wild type
# measurement.protocol: S. aureus survival, RN4220 and DeltatarO strains – OD600, teichoic acid synthesis inhibitors, primary screen (AID 463173)
# study.conditions: S. aureus RN4220 wild type/DeltatarO growth, OD600, 18 h, active compounds read low, screened at 18.75 µg/mL (by protocol)
About 1,700 (3.3%) of roughly 52,000 compounds were called active. What follows is part of a selection rich in actives, with near analogues and random picks from the rest.
Each record here notes measured survival.
Give the number; % is assumed, so skip it.

Below, each entry is followed by its recorded survival result.
COc1ccc(C2=C(C)C(=NCc3ccc(OC(C)C)cc3)NS2(=O)=O)cc1	86
Cc1ccc(-n2ncc3c(N4CCN(Cc5ccccc5)CC4)ncnc32)cc1	131
Cc1cc(C)c2c(-n3cccc3)c(C(=O)NCCc3ccc(Cl)cc3)sc2n1	118
CCCSc1nc2c([nH]c3ccccc32)c(=O)n1C	87
COc1cccc(N2CCN(C(=O)c3cnc4c(C)cccn4c3=O)CC2)c1	91
COc1cccc(NC(=O)C2CCC(CNS(=O)(=O)c3ccc4c(c3)CC(C)N4C(C)=O)CC2)c1 (stereo not given)	95

What measured survival is associated with "CSc1cccc(NC(=O)c2cccc(N3CCCS3(=O)=O)c2)c1" on Wild type?
115

Please provide the recorded survival for "Cc1cc2c(cc1S(=O)(=O)NCc1ccc(F)cc1)n(C)c(=O)c(=O)n2C" , tested on Wild type.
85

Test system Wild type; read-out survival; what value for "Cc1cccc(NC(=O)CN2C(=O)COc3ccc(S(=O)(=O)N4CCC(C)CC4)cc32)c1C" ?
101

Please tell me: survival of "CCOC(=O)c1ccc(NC(=O)c2cnc3c(-c4ccc(F)cc4)c(C)nn3c2C)cc1" , system Wild type?
120

###

As shown below, each of these compounds has a reported survival value.
# Test system: Wild type
# measurement.protocol: S. aureus survival, RN4220 and DeltatarO strains – OD600, teichoic acid synthesis inhibitors, primary screen (AID 463173)
# study.conditions: S. aureus RN4220 wild type/DeltatarO growth, OD600, 18 h, active compounds read low, screened at 18.75 µg/mL (by protocol)
Out of some 52,000 compounds screened, about 1,700 (3.3%) were called active. The list comes from a sample in which actives are over-represented; it also holds close analogues and randomly drawn compounds.
Your answer is read as %, so omit the unit and give the number.

The examples below pair each entry with its known result.
CC(=O)c1ccc(NS(=O)(=O)c2cnc(N)nc2)cc1	1
COc1ccc(-c2cc(C(F)(F)F)nc(NCc3ccc(Cl)cc3)n2)cc1	-3
COc1ccc(CNC(=O)CSc2nc(-c3ccc(OC)c(OC)c3)cc(C(F)(F)F)n2)cc1	83

Which survival value belongs to "CCOc1cc(-c2nc(-c3ccc(-c4ccc(C)cc4)nc3OC)no2)cc(OCC)c1OCC" ?
56

###

# System: Wild type
# measurement.protocol: S. aureus survival, RN4220 and DeltatarO strains – OD600, teichoic acid synthesis inhibitors, primary screen (AID 463173)
# study.conditions: S. aureus RN4220 wild type/DeltatarO growth, OD600, 18 h, active compounds read low, screened at 18.75 µg/mL (by protocol)
Hit rate of the full screen: of about 52,000 compounds, about 1,700 (3.3%) were called active. Many of the other results were omitted from the sample, so actives are more common in it than they were.
Sorting guide: entries reporting survival beneath 80% go in the 1 (yes) pile, the rest go in the 0 (no) pile.

Look over these answered cases.
Cc1ccccc1SCC(=O)O	0 (no)
O=C(CSc1ccc(-c2ccc(F)cc2)nn1)N1CCOCC1	0 (no)
O=C(Cn1ccc2cc(S(=O)(=O)N3CCCCC3)ccc21)NCCc1ccccc1Cl	1 (yes)
O=C(CC1(O)C(=O)N(CCc2ccccc2)c2ccc(Br)cc21)c1ccc(F)cc1 (configuration not stated)	1 (yes)
O=C(CCn1ccc2cc(S(=O)(=O)N3CCCC3)ccc21)NCc1ccccc1Cl	1 (yes)

Moving on to another compound below.
Bench note: check whether COC(=O)c1ccc(Cl)cc1NC(=O)NC(C)c1c(-n2cccc2)sc(C)c1C (configuration not stated) shows survival below 80%
1 (yes)

###

# Tested on: Wild type
# measurement.protocol: S. aureus survival, RN4220 and DeltatarO strains – OD600, teichoic acid synthesis inhibitors, primary screen (AID 463173)
# study.conditions: S. aureus RN4220 wild type/DeltatarO growth, OD600, 18 h, active compounds read low, screened at 18.75 µg/mL (by protocol)
In all, about 52,000 compounds went through this assay and about 1,700 (3.3%) were called active. The full list was thinned out, with actives kept by preference.
Below, each entry is listed alongside its reported survival.
Answer in %, number only, no unit symbol.

CC1CCN(c2nc3ccccc3nc2SCC(=O)Nc2ccccc2C(C)C)CC1	-16
O=C1CC(c2ccccc2C(F)(F)F)c2c(c3ccccc3[nH]c2=O)O1 (stereo unspecified)	69
CC1CCN(CC(=O)N2CCN(c3ccccc3)CC2)CC1	106
COc1ccc(NC(=O)C2CCN(C(=O)c3sc4nc[nH]c(=O)c4c3C)CC2)c(OC)c1	81
Cc1ccc(C)c(NC(=O)CSc2nc3ccccc3nc2N2CCOCC2)c1	76

Value lookup for survival; key = "O=C(c1cnc(N2CCCCC2)c2ccccc12)N1CCN(c2cccc(Cl)c2)CC1"
68

Recorded survival for "COc1cc(OC)c(NC(=O)Cn2c(=O)nc(-c3ccccc3)c3ccccc32)cc1Cl" , please?
68

survival lookup needed for "O=C(c1cccs1)c1cn(CCOc2ccccc2Cl)c2ccccc12" , thanks.
80

Need survival of "COc1ccc(CNC(=O)Cc2c(C)c3cc4c(C)coc4cc3oc2=O)cc1" , thanks.
88

Using the record for "Cc1ccc(-c2nc(C)c(CCNS(=O)(=O)c3ccc(F)c(C(F)(F)F)c3)s2)cc1" , report its survival.
-6

Field request: survival | item: "Cc1cccc(NC(=O)CSc2nc3ccccc3nc2N2CCOCC2)c1C"
65

Quick check: survival of "CCc1cccc(C)c1NC(=O)c1cc(C)nc2c1c(C)nn2-c1cccc(Cl)c1C" ?
78

Which measured survival value corresponds to "Cc1cccc(C(=O)Nc2nc(-c3nnn(-c4cc(F)ccc4F)c3C)ns2)c1" ?
133

Value lookup for survival; key = "COc1cc(Cl)c(C)cc1NC(=O)Cn1cc(S(=O)(=O)N2CCN(c3ccccc3F)CC2)c2ccccc2c1=O"
68
